Biological target: T1, human CD28, full-length, expressed on transfected Expi293 cells (human, UniProt P10747 19-220)
T1 construct: whole, on cells
Experiment: flow cytometry, 100 nM, Expi293 cells with human CD28
measurement kind: MFI (MFI)
Numbers only, in MFI.

variant ICOSL IgV-Fc fusion N52G/N57P/Q100D (Fc fusion) DTQEKEVRAMVGSDVELSCACPEGSRFDLNDVYVYWQTSESKTVVTYHIPQGSSLEPVDSRYRNRALMSPAGMLRGDFSLRLFNVTPQDEQKFHCLVLSDSLGFQEVLSVEVTLHVAANFSVGSGGGGSEPKSSDKTHTCPPCPAPEAEGAPSVFLFPPKPKDTLMISRTPEVTCVVVDVSHEDPEVKFNWYVDGVEVHNAKTKPREEQYNSTYRVVSVLTVLHQDWLNGKEYKCKVSNKALPAPIEKTISKAKGQPREPQVYTLPPSREEMTKNQVSLTCLVKGFYPSDIAVEWESNGQPENNYKTTPPVLDSDGSFFLYSKLTVDKSRWQQGNVFSCSVMHEALHNHYTQKSLSLSPG; 5720

We now examine a further binder.
[in] # MFI lookup, item variant ICOSL IgV-Fc fusion N52V/N57L/Q100A (Fc fusion) DTQEKEVRAMVGSDVELSCACPEGSRFDLNDVYVYWQTSESKTVVTYHIPQVSSLELVDSRYRNRALMSPAGMLRGDFSLRLFNVTPQDEQKFHCLVLSASLGFQEVLSVEVTLHVAANFSVGSGGGGSEPKSSDKTHTCPPCPAPEAEGAPSVFLFPPKPKDTLMISRTPEVTCVVVDVSHEDPEVKFNWYVDGVEVHNAKTKPREEQYNSTYRVVSVLTVLHQDWLNGKEYKCKVSNKALPAPIEKTISKAKGQPREPQVYTLPPSREEMTKNQVSLTCLVKGFYPSDIAVEWESNGQPENNYKTTPPVLDSDGSFFLYSKLTVDKSRWQQGNVFSCSVMHEALHNHYTQKSLSLSPG
[out] 132000
